test system: corn; experiment: Example 24, Procedure II: Herbicide No. 1 + co-herbicides Nos. 4, 6, 7, 12 with Antidote Nos. 15 and 17-21; format: in vivo; conditions: Herb. No. 1 0.14 Kg/ha + Co-Herb. No. 7 0.28 Kg/ha + antidote 2.24 Kg/ha
Reported metric: % Inhibition Corn (%)
Quick note: give the figure in %, leave out the unit.

Solved cases below.
CC1(C)OC(c2ccco2)CN1C(=O)C(Cl)Cl (stereo not drawn) [compound 15]	0
O=C(O)COC(c1ccccc1)c1ccccc1 [compound 18]	10
COC(=O)COC(c1ccccc1)c1ccccc1 [compound 20]	0
O=C(O)COC(c1ccccc1)c1ccccc1 [compound 19]	0
CC1COc2ccccc2N1C(=O)C(Cl)Cl (stereo not drawn) [compound 17]	0

Could you now consider this next compound?
Summary for this compound, CCSC(=O)COC(c1ccccc1)c1ccccc1 [compound 21] : % Inhibition Corn is 0

====

test system: barnyardgrass (Echinochloa crusgalli); test: Example 19, Procedure II: Herbicide No. 1 + ERADICANE EXTRA with added antidotes; type: in vivo; conditions: Herbicide No.1 0.56 kg/ha + ERADICANE EXTRA 8.96 kg/ha; antidote 2.24 kg/ha
Reported metric: % Injury BYG (%)
Express it in %; write the number only.

Solved entries:
CC1(C(Cl)Cl)OCCO1	90
C=CCN(CC=C)C(=O)C(Cl)Cl	90
CC1(C)OC(c2ccco2)CN1C(=O)C(Cl)Cl (centres unmarked)	90
O=C(C(Cl)Cl)N1CCOC12CCCCC2	85

Then there is this compound:
The reported % Injury BYG of the compound O=C1OC(=O)c2cccc3cccc1c23 was 90

====

system: Giant foxtail (Setaria fabergi); test: Example 23, Procedure II: Antidote Nos. 15 and 17-21 against Herbicide No. 1, 13 days after application; assay type: in vivo; settings: Table 23B, Herb. No. 1 0.28 Kg/Ha + antidote 0.56 Kg/ha
Reported metric: % Inhibition GFT (%)
Quick reminder: number only, in %, skip the unit.

O=C(O)COC(c1ccccc1)c1ccccc1 [compound 18]	20
COC(=O)COC(c1ccccc1)c1ccccc1 [compound 20]	20
O=C(O)COC(c1ccccc1)c1ccccc1 [compound 19]	40

// assay Giant foxtail (Setaria fabergi), entry CCSC(=O)COC(c1ccccc1)c1ccccc1 [compound 21] , % Inhibition GFT value = 45

Kindly note: Giant foxtail (Setaria fabergi), CC1COc2ccccc2N1C(=O)C(Cl)Cl (stereo not drawn) [compound 17] , % Inhibition GFT value reported: 40

Observed % Inhibition GFT on Giant foxtail (Setaria fabergi), entry CC1(C)OC(c2ccco2)CN1C(=O)C(Cl)Cl (stereo not drawn) [compound 15] , equals 30

====

system: barnyardgrass (Echinochloa crusgalli); assay: Example 21, Procedure II: Herbicide No. 1 + SUTAN PLUS (butylate + antidote) with antidotes; format: in vivo; details: Herbicide No.1 1.12 kg/ha + SUTAN + 8.96 kg/ha; antidote 8.96 kg/ha
Classification field: enter label 1 for % Injury BYG values not below 40%, label 0 for values below it.

Illustrative cases are given below, each with its answer.
O=C(C(Cl)Cl)N1CCOC12CCCCC2	label 0
CC1(C(Cl)Cl)OCCO1	label 1
O=C1OC(=O)c2cccc3cccc1c23	label 0

In the following, a different molecule is considered.
Query: Check this molecule for % Injury BYG at or above 40%: C=CCN(CC=C)C(=O)C(Cl)Cl
Reply: label 0

Data provenance is patent EP0603240B1.
